Here the recorded self-cleavage kobs at 2500 uM GlcN6P is given for each entry.
B1: glmS ribozyme (parent)
chain: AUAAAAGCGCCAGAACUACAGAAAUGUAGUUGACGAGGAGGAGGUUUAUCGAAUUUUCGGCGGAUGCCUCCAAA

variants of: B1; test: self-cleavage kobs at 2500 uM GlcN6P; higher = faster cleavage; RNA array; conditions: with glucosamine-6-phosphate
Variants at the floor of the assay were thinned out.
measurementKind: self-cleavage kobs at 2500 uM GlcN6P (s⁻¹)

G29C U54G; 0.00051
A15U G44U U47G C67G; 0.000563
A6U A39G; 9.44e-05
U55A A64U; 7.6e-05
U30G A52G; 0.00033
U46C C71U; 0.00309
C16A G51U U69G; 0.000199
A14C U69C C71U; 0.000131
A6G A12C U56G; 5.25e-05
A12U U31G C58G; 7.42e-05
G40A U56C; 8.42e-05
A53U G66A; 0.00666
C67U U69C; 4.99e-05
C16U U57A; 6.81e-05
C11U U56G; 0.000254
G29A A33C; 5.47e-05
G37A U54A U65G; 9.16e-05
A14C U65A; 0.000248
A53U C70U; 0.00471
A15U C70G; 7.05e-05
U31A G66A; 0.00305
A15G U56A; 0.00536
C11U A14C A39U U56C; 7.9e-05
G13U A53G C68G; 4.16e-05
G21A; 0.00839
U47G C68A C71G; 0.00013
A15G C58G; 8.41e-05
G29U G40A U45A; 0.000444
A42G U55C; 0.0354
G13A U30A C58A; 0.000138
G29C U45C; 9.03e-05
U55A; 0.025
U46C C70G; 0.000453
G13A A36G C58G C68G; 0.000157
A36C G37A G38A U56A C68G; 6.64e-05
A14U G66U; 0.000175

Where these numbers come from: the supplement of paper PMC7125110
